test system: Escherichia coli TOP10; experiment: shrunken log2 fold change of peptide-encoding DNA abundance (4.5 h post-induction vs induction); higher = less antimicrobial activity (less host growth inhibition); conditions: time post-induction: 4.5 h; library: site-saturation at positions 5, 18, 19, 20
# cutoff 0.07 applies to shrunken log2 fold change; >= gives label 1, < gives label 0

RRIRARPPRLPRPRPRPQTEPRP : label 1
RRIRARPPRLPRPRPRPCQAPRP : label 1
RRIRCRPPRLPRPRPRPNYQPRP : label 0
RRIRGRPPRLPRPRPRPMVWPRP : label 1

---

# reported shrunken log2 fold change; entries follow
test system: Escherichia coli TOP10; test: shrunken log2 fold change of peptide-encoding DNA abundance (4.5 h post-induction vs induction); higher = less antimicrobial activity (less host growth inhibition); settings: time post-induction: 4.5 h; library: site-saturation at positions 5, 18, 19, 20
measure-name: shrunken log2 fold change

RRIRIRPPRLPRPRPRPKSWPRP : 0.327
RRIRFRPPRLPRPRPRPWSTPRP : -0.0601
RRIRGRPPRLPRPRPRPSASPRP : 1.77
RRIRERPPRLPRPRPRPTYDPRP : -0.528
RRIRRRPPRLPRPRPRPCYPPRP : -0.0837
RRIRPRPPRLPRPRPRPGTNPRP : 1.46
RRIRIRPPRLPRPRPRPHLTPRP : -0.379
RRIRWRPPRLPRPRPRPCKKPRP : 0.0155
RRIRNRPPRLPRPRPRPTPDPRP : 0.17
RRIRSRPPRLPRPRPRPAFHPRP : -0.0038
RRIRHRPPRLPRPRPRPKFEPRP : -0.125
RRIRERPPRLPRPRPRPYDHPRP : -0.397
RRIRFRPPRLPRPRPRPGCCPRP : 0.258
RRIRVRPPRLPRPRPRPGAYPRP : -0.0376
RRIRYRPPRLPRPRPRPISVPRP : -0.534
RRIRYRPPRLPRPRPRPLITPRP : -0.749
RRIRSRPPRLPRPRPRPFNRPRP : -0.363
RRIRERPPRLPRPRPRPGDWPRP : 0.212
RRIRKRPPRLPRPRPRPFNMPRP : 0.0229
RRIRDRPPRLPRPRPRPMMMPRP : -0.0648
RRIRTRPPRLPRPRPRPCFIPRP : -1.05

---

test system: Escherichia coli TOP10; test: shrunken log2 fold change of peptide-encoding DNA abundance (4.5 h post-induction vs induction); higher = less antimicrobial activity (less host growth inhibition); settings: time post-induction: 4.5 h; library: site-saturation at positions 5, 18, 19, 20;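 note: peptides expressed intracellularly from a pBAD plasmid library in pooled LB shake-flask culture, induced with 0.3% L-arabinose, DNA abundance read by NGS, three biological replicates, DESeq2 with apeglm shrinkage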
measure-name: shrunken log2 fold change

RRIRERPPRLPRPRPRPWDGPRP : 0.421
RRIRVRPPRLPRPRPRPSTNPRP : -0.146
RRIRYRPPRLPRPRPRPCWQPRP : 0.013
RRIRERPPRLPRPRPRPLMSPRP : -0.406
RRIRARPPRLPRPRPRPNPCPRP : 0.0698
RRIRRRPPRLPRPRPRPIIHPRP : -0.584
RRIRGRPPRLPRPRPRPWAYPRP : -0.151
RRIRRRPPRLPRPRPRPRTEPRP : 0.432
RRIRQRPPRLPRPRPRPIDTPRP : -0.216
RRIRARPPRLPRPRPRPAQSPRP : 0.538
RRIRWRPPRLPRPRPRPSMCPRP : -0.16
